Where do these numbers come from? They come from PubChem BioAssay (NCATS).

- measured on: Retinaldehyde dehydrogenase 3 (Homo sapiens) (UniProt P47895)
- assay method text: qHTS for Inhibitors of the Aldehyde Dehydrogenase Family (ALDH1A3) Validation screen (AID 2061312); also: nearly all actives have a fitted effect of over 45% in size
- details: ALDH1A3 enzyme inhibition qHTS validation, fluorescence; series mostly up to 42.4 µM
Inconclusive results are not listed. Activity calls are given as the source filed them. Calls follow the shape of the dose curve; as a rule, active = well fitted inhibition curve with a large enough effect; inconclusive = small, poorly fitted or top-dose-only effect; inactive = no such curve, though single readings can be large or run the other way.
Hello, when you answer, please use one of the following outcomes: T for active, F for inactive

INSERT INTO measurements (molecule, assigned_label) VALUES
  ('CC(=O)NCCCOc1ccc(C(=O)N2CCC(N3C(=O)CCc4ccccc43)CC2)cc1', 'F'),
  ('CCCCCn1cc(C(=O)Oc2cccc3cccnc23)c2ccccc21', 'F'),
  ('O=c1[nH]c2ccc(Cl)cc2c(N[C@@H]2CN3CCC2CC3)c1-c1nc2ccccc2[nH]1', 'F'),
  ('CCC1(C2=NCCN2)Cc2ccccc2O1 (configuration not stated)', 'F'),
  ('CC(NC(C)(C)C)C(=O)c1cccc(Cl)c1 (configuration not stated)', 'F'),
  ('CN1C2CCC1CC(OC(c1ccccc1)c1ccccc1N)C2 (configuration not stated)', 'F');

Exercise: So what was the verdict on "O=C(CCCN1CCC2(CC1)C(=O)NCN2c1ccccc1)c1ccc(F)cc1" in this test?
Key: F

Exercise: Same lookup for "NCc1cc(=O)[nH]o1" , please.
Key: F

Exercise: Same lookup for "CNCCc1c[nH]c2ccc(O)cc12" , please.
Key: F

Exercise: Same lookup for CCOC(=O)c1cncn1C(C)c1ccccc1 (configuration not stated) , please.
Key: F

Exercise: Same lookup for CC(N)Cc1c[nH]c2ccc(O)cc12 (configuration not stated) , please.
Key: F

Exercise: Same lookup for "O=C(O)c1nn(Cc2ccc(Cl)cc2Cl)c2ccccc12" , please.
Key: F

Exercise: Same lookup for "C[C@@H]1O[C@@H](O[C@H]2C[C@@H](O)[C@]3(CO)[C@H]4[C@H](O)C[C@]5(C)[C@@H](C6=CC(=O)OC6)CC[C@]5(O)[C@@H]4CC[C@]3(O)C2)[C@H](O)[C@H](O)[C@H]1O" , please.
Key: F

Exercise: Same lookup for COC[C@H]1OC(=O)c2coc3c2[C@@]1(C)C1=C(C3=O)C2CCC(=O)[C@@]2(C)C[C@H]1OC(C)=O (some centres not stated) , please.
Key: T

Exercise: Same lookup for "CC(=O)OCC1=C(C(=O)O)N2C(=O)[C@@H](NC(=O)CCC[C@@H](N)C(=O)O)[C@H]2SC1" , please.
Key: F

Exercise: Same lookup for "CCc1nn(C)c(C(=O)NCc2ccc(Oc3ccc(C)cc3)cc2)c1Cl" , please.
Key: F

Exercise: Same lookup for "C[N+]1(C)CCc2cc3c(cc2[C@H]1[C@@H]1OC(=O)c2c1ccc1c2OCO1)OCO3" , please.
Key: F

Exercise: Same lookup for c1ccc2c(c1)OCC(C1=NCCN1)O2 (configuration not stated) , please.
Key: F

Exercise: Same lookup for CCCCN1[C@@H]2CC[C@H]1CC(OC(c1ccc(F)cc1)c1ccc(F)cc1)C2 (some centres not stated) , please.
Key: F

Exercise: Same lookup for "NCC1(CC(=O)O)CCCCC1" , please.
Key: F

Exercise: Same lookup for "NC(=O)CN1CCCC1=O" , please.
Key: F

Exercise: Same lookup for "N#Cc1ccc(N2CCN(C(=O)COc3ccc4[nH]cc(CCN)c4c3)CC2)cc1" , please.
Key: F
